- test.system: angiotensin converting enzyme (Oryctolagus cuniculus, UniProt P12822)
- Sequence (P12822 34-1310): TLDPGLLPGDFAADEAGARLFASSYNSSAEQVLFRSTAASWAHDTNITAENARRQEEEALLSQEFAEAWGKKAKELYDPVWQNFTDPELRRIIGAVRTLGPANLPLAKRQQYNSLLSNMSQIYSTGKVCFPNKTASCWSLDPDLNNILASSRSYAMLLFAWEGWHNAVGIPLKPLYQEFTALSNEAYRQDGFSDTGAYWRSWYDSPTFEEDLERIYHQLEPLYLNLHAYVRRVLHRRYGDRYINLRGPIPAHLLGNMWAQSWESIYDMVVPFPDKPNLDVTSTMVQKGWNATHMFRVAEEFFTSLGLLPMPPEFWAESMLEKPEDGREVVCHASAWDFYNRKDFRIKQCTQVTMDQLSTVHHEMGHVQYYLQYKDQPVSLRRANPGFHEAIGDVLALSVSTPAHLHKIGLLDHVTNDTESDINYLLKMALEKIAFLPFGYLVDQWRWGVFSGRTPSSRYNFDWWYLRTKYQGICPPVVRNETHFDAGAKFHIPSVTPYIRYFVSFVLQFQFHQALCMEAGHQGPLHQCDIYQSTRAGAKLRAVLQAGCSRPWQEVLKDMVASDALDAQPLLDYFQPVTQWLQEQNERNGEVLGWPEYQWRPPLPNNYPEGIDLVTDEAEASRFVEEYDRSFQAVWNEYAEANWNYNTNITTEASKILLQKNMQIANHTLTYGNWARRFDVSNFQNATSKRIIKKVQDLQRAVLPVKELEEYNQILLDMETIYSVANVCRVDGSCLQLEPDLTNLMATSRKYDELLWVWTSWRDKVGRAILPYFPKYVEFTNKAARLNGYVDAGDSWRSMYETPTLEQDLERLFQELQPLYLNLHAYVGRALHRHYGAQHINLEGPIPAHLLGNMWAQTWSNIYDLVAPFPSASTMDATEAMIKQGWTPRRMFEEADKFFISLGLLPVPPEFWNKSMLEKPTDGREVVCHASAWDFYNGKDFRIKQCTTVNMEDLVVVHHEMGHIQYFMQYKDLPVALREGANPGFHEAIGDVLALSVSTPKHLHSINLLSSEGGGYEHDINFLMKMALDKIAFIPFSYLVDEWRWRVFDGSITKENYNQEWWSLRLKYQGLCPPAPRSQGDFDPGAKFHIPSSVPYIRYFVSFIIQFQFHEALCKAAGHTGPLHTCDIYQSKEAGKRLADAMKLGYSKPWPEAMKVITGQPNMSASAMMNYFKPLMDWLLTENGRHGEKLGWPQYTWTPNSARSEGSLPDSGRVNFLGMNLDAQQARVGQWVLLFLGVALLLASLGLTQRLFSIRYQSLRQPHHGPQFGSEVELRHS
- procedure.details: inhibition of angiotensin converting enzyme in vitro (cleavage of hippuryl-histidyl-leucine)
- Format: biochemical
- condition.details: substrate hippuryl-histidyl-leucine 2 mM, potassium phosphate buffer pH 8.3 (100 mM), NaCl 300 mM, 25 minutes, 37° C.
quantity.kind: IC50 (µM)

>  <compound>
NC(=O)CCn1c(=O)n2n(c1=O)C(C(=O)O)C=CC2 (stereo not drawn) [Compound B]

>  <IC50 (µM)>
65

$$$$

P = O=C(O)C1C=CCn2c(=O)n(CCS)c(=O)n21 (stereo not drawn) [Compound D]
Q = O=C(CCn1c(=O)n2n(c1=O)C(C(=O)O)C=CC2)NO (stereo not drawn) [Compound C]
Q: # returns the entry with the larger IC50; inputs P and Q Answer by stating the label of the chosen item.
Ans: Q

// provenance: patent US4307094A
